Test Target: LNX2-2 (Homo sapiens, UniProt Q8N448)
Sequence (Q8N448 339-422): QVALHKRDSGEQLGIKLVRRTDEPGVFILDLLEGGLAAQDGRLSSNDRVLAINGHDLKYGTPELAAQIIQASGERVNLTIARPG
Test: Holdup assay, LNX2-2
Type: binding
*1 amine or outer side, *2 acyl side, *3 side chain or, on linkers, in order; H or OH if unused. Where a SMILES comes first, the peptide text is derived from it. The star is where a group is joined. X1 = O=C(CCCC[C@@H]1SC[C@@H]2NC(=O)N[C@@H]21)NCCCOCCOCCOCCCN*; Suc = O=C(CCC(=O)[*:2])[*:1]
Reported Property: BI

For orientation, consider the following solved cases.
CC[C@H](C)[C@H](NC(=O)[C@H](CCC(N)=O)NC(=O)[C@@H](NC(=O)[C@H](Cc1c[nH]cn1)NC(=O)[C@H](CCC(N)=O)NC(=O)[C@H](CC(=O)O)NC(=O)[C@H](CCC(=O)O)NC(=O)[C@H](CC(=O)O)NC(=O)CCC(=O)NCCCOCCOCCOCCCNC(=O)CCCC[C@@H]1SC[C@@H]2NC(=O)N[C@@H]21)[C@@H](C)O)C(=O)N[C@H](C(=O)N[C@@H](CCCCNC(C)=O)C(=O)N[C@H](C(=O)O)C(C)C)[C@@H](C)O [PTEN_Ac]; 0.68
CC[C@H](C)[C@H](NC(=O)[C@H](CCC(N)=O)NC(=O)[C@@H](NC(=O)[C@H](Cc1c[nH]cn1)NC(=O)[C@H](CCC(N)=O)NC(=O)[C@H](CC(=O)O)NC(=O)[C@H](CCC(=O)O)NC(=O)[C@H](CC(=O)O)NC(=O)[C@H](Cc1ccccc1)NC(=O)[C@@H]1CCCN1C(=O)CCC(=O)NCCCOCCOCCOCCCNC(=O)CCCC[C@@H]1SC[C@@H]2NC(=O)N[C@@H]21)[C@@H](C)O)C(=O)N[C@H](C(=O)N[C@@H](CCCCN)C(=O)N[C@H](C(=O)O)C(C)C)[C@@H](C)O [PTEN_13] ({X1-Suc}-PFDEDQHTQITKV-OH); 0.136

Please look at the following compound next.
Ask: Provide one value: measured BI of CC[C@H](C)[C@H](NC(=O)[C@H](CCC(N)=O)NC(=O)[C@@H](NC(=O)[C@H](Cc1c[nH]cn1)NC(=O)[C@H](CCC(N)=O)NC(=O)[C@H](CC(=O)O)NC(=O)[C@H](CCC(=O)O)NC(=O)[C@H](CC(=O)O)NC(=O)CCC(=O)NCCCOCCOCCOCCCNC(=O)CCCC[C@@H]1SC[C@@H]2NC(=O)N[C@@H]21)[C@@H](C)O)C(=O)N[C@H](C(=O)N[C@@H](CCCCN)C(=O)N[C@H](C(=O)O)C(C)C)[C@@H](C)O [PTEN_11]
Reply: -0.039

====

System: 266 human PDZ domains (PDZome)
Test: Holdup assay (chromatographic retention, PDZome-binding profile, BI)
Set-up: key: binding intensity: 0.00 = no binding, 1.00 = maximal binding
Condition Parameters: PDZ domain NHERF4-3
*1 amine or outer side, *2 acyl side, *3 side chain or, on linkers, in order; H or OH if unused. Where a SMILES comes first, the peptide text is derived from it. The star is where a group is joined. X1 = O=C(CCCC[C@@H]1SC[C@@H]2NC(=O)N[C@@H]21)NCCCOCCOCCOCCCN*; Suc = O=C(CCC(=O)[*:2])[*:1]
Reported Property: BI

Solved entries (count: 2):
CC[C@H](C)[C@H](NC(=O)[C@H](CCC(N)=O)NC(=O)[C@@H](NC(=O)[C@H](Cc1c[nH]cn1)NC(=O)[C@H](CCC(N)=O)NC(=O)[C@H](CC(=O)O)NC(=O)[C@H](CCC(=O)O)NC(=O)[C@H](CC(=O)O)NC(=O)CCC(=O)NCCCOCCOCCOCCCNC(=O)CCCC[C@@H]1SC[C@@H]2NC(=O)N[C@@H]21)[C@@H](C)O)C(=O)N[C@H](C(=O)N[C@@H](CCCCNC(C)=O)C(=O)N[C@H](C(=O)O)C(C)C)[C@@H](C)O [PTEN_Ac]; -0.031
CC[C@H](C)[C@H](NC(=O)[C@H](CCC(N)=O)NC(=O)[C@@H](NC(=O)[C@H](Cc1c[nH]cn1)NC(=O)[C@H](CCC(N)=O)NC(=O)[C@H](CC(=O)O)NC(=O)[C@H](CCC(=O)O)NC(=O)[C@H](CC(=O)O)NC(=O)CCC(=O)NCCCOCCOCCOCCCNC(=O)CCCC[C@@H]1SC[C@@H]2NC(=O)N[C@@H]21)[C@@H](C)O)C(=O)N[C@H](C(=O)N[C@@H](CCCNC(=N)N)C(=O)N[C@H](C(=O)O)C(C)C)[C@@H](C)O [PTEN_KR] ({X1-Suc}-DEDQHTQITRV-OH); -0.035

--- query ---
Ask: Give recorded BI. CC[C@H](C)[C@H](NC(=O)[C@H](CCC(N)=O)NC(=O)[C@@H](NC(=O)[C@H](Cc1c[nH]cn1)NC(=O)[C@H](CCC(N)=O)NC(=O)[C@H](CC(=O)O)NC(=O)[C@H](CCC(=O)O)NC(=O)[C@H](CC(=O)O)NC(=O)[C@H](Cc1ccccc1)NC(=O)[C@@H]1CCCN1C(=O)CCC(=O)NCCCOCCOCCOCCCNC(=O)CCCC[C@@H]1SC[C@@H]2NC(=O)N[C@@H]21)[C@@H](C)O)C(=O)N[C@H](C(=O)N[C@@H](CCCCN)C(=O)N[C@H](C(=O)O)C(C)C)[C@@H](C)O [PTEN_13] ({X1-Suc}-PFDEDQHTQITKV-OH)
Reply: 0.208

====

Overview of recorded BI for various compounds
Test system: 266 human PDZ domains (PDZome)
Test: Holdup assay (chromatographic retention, PDZome-binding profile, BI)
Design: key: binding intensity: 0.00 = no binding, 1.00 = maximal binding
Condition Parameters: PDZ domain PTPN13-5
*1 amine or outer side, *2 acyl side, *3 side chain or, on linkers, in order; H or OH if unused. Where a SMILES comes first, the peptide text is derived from it. The star is where a group is joined. X1 = O=C(CCCC[C@@H]1SC[C@@H]2NC(=O)N[C@@H]21)NCCCOCCOCCOCCCN*; Suc = O=C(CCC(=O)[*:2])[*:1]
Please reply with the value in numeric form only.

CC[C@H](C)[C@H](NC(=O)[C@H](CCC(N)=O)NC(=O)[C@@H](NC(=O)[C@H](Cc1c[nH]cn1)NC(=O)[C@H](CCC(N)=O)NC(=O)[C@H](CC(=O)O)NC(=O)[C@H](CCC(=O)O)NC(=O)[C@H](CC(=O)O)NC(=O)CCC(=O)NCCCOCCOCCOCCCNC(=O)CCCC[C@@H]1SC[C@@H]2NC(=O)N[C@@H]21)[C@@H](C)O)C(=O)N[C@H](C(=O)N[C@@H](CCCCN)C(=O)N[C@H](C(=O)O)C(C)C)[C@@H](C)O; -0.041

Ask: Look up and report BI, with 266 human PDZ domains (PDZome) as system, for CC[C@H](C)[C@H](NC(=O)[C@H](CCC(N)=O)NC(=O)[C@@H](NC(=O)[C@H](Cc1c[nH]cn1)NC(=O)[C@H](CCC(N)=O)NC(=O)[C@H](CC(=O)O)NC(=O)[C@H](CCC(=O)O)NC(=O)[C@H](CC(=O)O)NC(=O)CCC(=O)NCCCOCCOCCOCCCNC(=O)CCCC[C@@H]1SC[C@@H]2NC(=O)N[C@@H]21)[C@@H](C)O)C(=O)N[C@H](C(=O)N[C@@H](CCCNC(=N)N)C(=O)N[C@H](C(=O)O)C(C)C)[C@@H](C)O [PTEN_KR] ({X1-Suc}-DEDQHTQITRV-OH)
Reply: 0.096

Ask: Report BI from 266 human PDZ domains (PDZome) testing of CC[C@H](C)[C@H](NC(=O)[C@H](CCC(N)=O)NC(=O)[C@@H](NC(=O)[C@H](Cc1c[nH]cn1)NC(=O)[C@H](CCC(N)=O)NC(=O)[C@H](CC(=O)O)NC(=O)[C@H](CCC(=O)O)NC(=O)[C@H](CC(=O)O)NC(=O)[C@H](Cc1ccccc1)NC(=O)[C@@H]1CCCN1C(=O)CCC(=O)NCCCOCCOCCOCCCNC(=O)CCCC[C@@H]1SC[C@@H]2NC(=O)N[C@@H]21)[C@@H](C)O)C(=O)N[C@H](C(=O)N[C@@H](CCCCN)C(=O)N[C@H](C(=O)O)C(C)C)[C@@H](C)O [PTEN_13] ({X1-Suc}-PFDEDQHTQITKV-OH)
Reply: 0.022

====

Test system: 266 human PDZ domains (PDZome)
Test: Holdup assay (chromatographic retention, PDZome-binding profile, BI)
Parameters: key: binding intensity: 0.00 = no binding, 1.00 = maximal binding
Condition Parameters: PDZ domain SHROOM2-1
Reported Property: BI
Response field accepts a number only; no unit should be typed.

Ask: Write BI of "CC[C@H](C)[C@H](NC(=O)[C@H](CCC(N)=O)NC(=O)[C@@H](NC(=O)[C@H](Cc1c[nH]cn1)NC(=O)[C@H](CCC(N)=O)NC(=O)[C@H](CC(=O)O)NC(=O)[C@H](CCC(=O)O)NC(=O)[C@H](CC(=O)O)NC(=O)CCC(=O)NCCCOCCOCCOCCCNC(=O)CCCC[C@@H]1SC[C@@H]2NC(=O)N[C@@H]21)[C@@H](C)O)C(=O)N[C@H](C(=O)N[C@@H](CCCCNC(C)=O)C(=O)N[C@H](C(=O)O)C(C)C)[C@@H](C)O" ; system used: 266 human PDZ domains (PDZome)
Reply: -0.072
